Data credit: patent US10849322B2

# Test system: E. coli enteroinvasive
# Procedure details: Disc diffusion, zones of inhibition in culture medium
# Assay type: cell-based, Escherichia coli
# Condition: B = E. coli enteroinvasive, average of four repetitions
Value kind: Zones of inhibition
Please answer in the form of a number followed by its unit of measurement.

These recorded examples may help you get a feel for the data.
{"Compound": "O=C1C[C@](O)(C(=O)O)[C@@H](C(=O)O)O1", "Target entity": "E. coli enteroinvasive", "Measurement": "12 mm"}
{"Compound": "CCOC(=O)[C@H]1OC(=O)C[C@]1(O)C(=O)OCC", "Target entity": "E. coli enteroinvasive", "Measurement": "6 mm"}
{"Compound": "CCOC(=O)C[C@](O)(C(=O)OCC)[C@@H](O)C(=O)OCC [Compound 6, tri-ethyl ester of hydroxycitric acid]", "Target entity": "E. coli enteroinvasive", "Measurement": "5 mm"}

List the reported Zones of inhibition of each compound below.
1. CCOC(=O)[C@@]1(O)CC(=O)O[C@@H]1C(=O)O
2. COC(=O)[C@@]1(O)CC(=O)O[C@@H]1C(=O)O
3. COC(=O)[C@H]1OC(=O)C[C@]1(O)C(=O)OC

6 mm
10 mm
8 mm
